Reference source for all entries: patent US10167276B2

For each of the compounds below, state its pIC50.
biological target: JAK3 (Homo sapiens (Human), UniProt P52333); assay: Enzyme inhibition studies, recombinant JAK3 (Caliper peptide phosphorylation); details: recombinant JAK3 (amino acids 781-1124); assayed at ATP Km (3 μM) and 5 mM ATP, table does not say which
Sequence (P52333 781-1124): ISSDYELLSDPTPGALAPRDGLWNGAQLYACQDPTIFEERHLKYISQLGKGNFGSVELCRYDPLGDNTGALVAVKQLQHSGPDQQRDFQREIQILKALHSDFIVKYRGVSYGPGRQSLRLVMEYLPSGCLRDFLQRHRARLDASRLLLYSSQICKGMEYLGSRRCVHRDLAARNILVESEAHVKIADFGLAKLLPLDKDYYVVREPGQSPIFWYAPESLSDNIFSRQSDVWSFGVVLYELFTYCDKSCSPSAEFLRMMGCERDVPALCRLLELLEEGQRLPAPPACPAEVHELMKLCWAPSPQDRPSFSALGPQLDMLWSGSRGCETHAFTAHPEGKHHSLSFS
pIC50: −log10 of the molar value.

Input line: Reported pIC50, compound CCOc1nn(C)cc1Nc1ncc(C)c(-c2c[nH]c3c(NC(=O)[C@H](COC)N4CCN(C)CC4)cccc23)n1 : ____
Output line: < 4.52

Input line: What pIC50 value was documented for this compound, CCOc1nn(C)cc1Nc1ncc(C)c(-c2c[nH]c3c(NC(=O)[C@@H](COC)N4CCN(C)CC4)cccc23)n1 ?
Output line: < 4.52

----------
target: UniProt O60674; experiment: Enzyme inhibition studies, recombinant JAK2 (Caliper peptide phosphorylation); conditions: recombinant JAK2 (amino acids 831-1132); assayed at ATP Km (15 μM) and 5 mM ATP, table does not say which
Sequence (O60674 831-1132): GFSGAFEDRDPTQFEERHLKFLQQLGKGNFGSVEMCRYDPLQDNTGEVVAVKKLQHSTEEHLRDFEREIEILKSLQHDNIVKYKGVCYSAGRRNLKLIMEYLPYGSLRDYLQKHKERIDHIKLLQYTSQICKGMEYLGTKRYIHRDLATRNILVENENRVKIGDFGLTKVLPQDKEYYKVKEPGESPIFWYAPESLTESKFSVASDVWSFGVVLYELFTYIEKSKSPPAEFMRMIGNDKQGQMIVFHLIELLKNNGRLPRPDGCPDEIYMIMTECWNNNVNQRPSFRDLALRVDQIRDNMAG
experimental-endpoint: pIC50
Remember the convention: pIC50 equals -log10 of concentration in molar.

Input line: Dear colleague, I am looking for the recorded pIC50 of the following molecule: CCOc1nn(C)cc1Nc1ncc(C)c(-c2c[nH]c3c(NC(=O)[C@@H](COC)N4CCN(C)CC4)cccc23)n1
Output line: 5.69

----------
target: JAK1 (Homo sapiens (Human)); assay: Enzyme inhibition studies, recombinant JAK1 (Caliper peptide phosphorylation); assay type: biochemical; conditions: recombinant JAK1 (amino acids 866-1154); assayed at ATP Km (55 μM) and 5 mM ATP, table does not say which
Sequence (P23458 866-1154): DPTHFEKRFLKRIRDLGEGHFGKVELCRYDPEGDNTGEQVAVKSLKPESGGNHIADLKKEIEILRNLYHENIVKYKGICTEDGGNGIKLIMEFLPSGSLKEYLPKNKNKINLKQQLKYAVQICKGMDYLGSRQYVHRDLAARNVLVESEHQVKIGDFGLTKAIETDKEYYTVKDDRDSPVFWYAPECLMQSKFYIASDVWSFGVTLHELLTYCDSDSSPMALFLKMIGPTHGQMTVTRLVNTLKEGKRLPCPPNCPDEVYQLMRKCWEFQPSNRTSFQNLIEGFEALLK
experimental-endpoint: pIC50
The read-out pIC50 is expressed as -log10 of concentration in moles per litre.

Input line: Consider the molecule shown here: CCOc1nn(C)cc1Nc1ncc(C)c(-c2c[nH]c3c(NC(=O)[C@H](COC)N4CCN(C)CC4)cccc23)n1 What is its recorded pIC50?
Output line: 5.60
